IC50: recorded values
Biological target: Cytochrome P450 2C19 (Homo sapiens)
Sequence (P33261 whole entry): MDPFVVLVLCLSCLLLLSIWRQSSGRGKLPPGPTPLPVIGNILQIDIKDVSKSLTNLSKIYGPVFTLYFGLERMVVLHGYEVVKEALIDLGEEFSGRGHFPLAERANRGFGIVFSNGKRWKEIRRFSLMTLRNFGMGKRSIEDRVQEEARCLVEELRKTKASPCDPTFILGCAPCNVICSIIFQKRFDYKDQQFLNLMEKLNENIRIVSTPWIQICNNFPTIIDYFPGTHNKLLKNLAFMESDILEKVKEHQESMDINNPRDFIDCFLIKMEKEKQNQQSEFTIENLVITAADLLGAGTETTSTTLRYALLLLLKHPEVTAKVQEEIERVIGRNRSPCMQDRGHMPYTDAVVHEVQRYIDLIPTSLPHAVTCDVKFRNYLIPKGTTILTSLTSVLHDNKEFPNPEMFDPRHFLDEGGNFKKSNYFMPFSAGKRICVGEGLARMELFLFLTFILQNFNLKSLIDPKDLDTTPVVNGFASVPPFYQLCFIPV
Test: Inhibition of CYP2C19 in human liver microsomes using (S)-mephenytoin as substrate preincubated for 10 mins followed by NADPH addition measured after 40 mins
Format: ADME
Give the value, in units of µM, as a plain number.

{"MOLECULE SMILES": "CCCCCCC[C@H](O)CC(=O)CCc1ccc(O)c(OC)c1", "UNIT DESCRIPTOR": "µM", "IC50": 8.1}

Query: So what does the record say about IC50 for `CCCCCCCCC[C@H](O)CC(=O)CCc1ccc(O)c(OC)c1` ?
Response: 6.6

----------
Target: CYP3A4 (Homo sapiens, UniProt P08684)
Sequence (P08684 whole entry): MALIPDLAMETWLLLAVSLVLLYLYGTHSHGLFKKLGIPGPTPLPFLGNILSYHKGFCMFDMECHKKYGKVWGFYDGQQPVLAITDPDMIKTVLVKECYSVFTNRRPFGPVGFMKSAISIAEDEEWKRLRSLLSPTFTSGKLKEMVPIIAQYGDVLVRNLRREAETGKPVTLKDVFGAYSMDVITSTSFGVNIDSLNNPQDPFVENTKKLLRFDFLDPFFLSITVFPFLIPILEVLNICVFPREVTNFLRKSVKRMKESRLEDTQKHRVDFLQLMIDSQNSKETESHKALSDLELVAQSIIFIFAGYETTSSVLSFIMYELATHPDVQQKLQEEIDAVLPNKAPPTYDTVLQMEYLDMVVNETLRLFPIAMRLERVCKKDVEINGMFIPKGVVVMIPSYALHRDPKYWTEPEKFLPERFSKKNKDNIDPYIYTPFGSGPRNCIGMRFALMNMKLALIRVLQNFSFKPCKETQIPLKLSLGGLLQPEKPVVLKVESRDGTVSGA
Test: Inhibition of CYP3A4 in human liver microsomes assessed as enzyme-mediated metabolite formation at 3 uM using midazolam as substrate incubated for 5 mins followed by NADPH addition measured after 30 mins by LC-MS/MS analysis relative to control
Format: ADME
Design: scale not given: the % may be the effect or the level left
Conditions: probe midazolam, read-out: Activity
METRIC: activity at 0.5 h, 3 µM (%)
Your answer is read as %, so omit the unit and give the number.

Query: Please give the measured activity at 0.5 h, 3 µM for this molecule: `CCCCCCCC(=O)CCc1ccc(O)c(OC)c1`
Response: 77.4

----------
Molecular target: Cytochrome P450 2C9 (Homo sapiens, UniProt P11712)
Sequence (P11712 whole entry): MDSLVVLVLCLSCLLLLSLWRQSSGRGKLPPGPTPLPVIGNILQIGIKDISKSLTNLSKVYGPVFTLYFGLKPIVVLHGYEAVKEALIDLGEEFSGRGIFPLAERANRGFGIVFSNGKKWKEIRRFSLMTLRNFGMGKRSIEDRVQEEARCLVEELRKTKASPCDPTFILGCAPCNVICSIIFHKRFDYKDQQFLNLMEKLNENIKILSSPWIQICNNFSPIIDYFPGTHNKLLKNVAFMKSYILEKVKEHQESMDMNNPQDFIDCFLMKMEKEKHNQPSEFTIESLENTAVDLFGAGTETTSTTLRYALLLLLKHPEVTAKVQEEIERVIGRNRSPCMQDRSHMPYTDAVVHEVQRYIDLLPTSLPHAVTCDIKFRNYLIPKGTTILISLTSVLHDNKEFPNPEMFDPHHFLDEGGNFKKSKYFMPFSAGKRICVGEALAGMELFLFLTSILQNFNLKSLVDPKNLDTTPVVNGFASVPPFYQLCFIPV
Test: Inhibition of human CYP2C9 using diclofenac as substrate incubated for 5 mins followed by NADPH addition measured after 30 mins by LC-MS/MS analysis
Format: ADME
METRIC: IC50 (µM)
// note: answer is a bare numeric in µM

Query: Item `CCCCCCCC(=O)CCc1ccc(O)c(OC)c1` has what recorded IC50?
Response: 10.5

----------
Target: UniProt P08684
Assay: Inhibition of CYP3A4 in human liver microsomes assessed as enzyme-mediated metabolite formation at 30 uM using midazolam as substrate incubated for 5 mins followed by NADPH addition measured after 30 mins by LC-MS/MS analysis relative to control
Assay type: ADME
Set-up: scale not given: the % may be the effect or the level left
Details: probe midazolam, read-out: Activity
METRIC: activity at 0.5 h, 30 µM (%)
Give the value in % but do not write % after it.

Query: What value of activity at 0.5 h, 30 µM has been reported for the following compound? `CCCCCCCC(=O)CCc1ccc(O)c(OC)c1`
Response: 72

----------
Target: CYP2D6 (Homo sapiens, UniProt P10635)
Sequence (P10635 whole entry): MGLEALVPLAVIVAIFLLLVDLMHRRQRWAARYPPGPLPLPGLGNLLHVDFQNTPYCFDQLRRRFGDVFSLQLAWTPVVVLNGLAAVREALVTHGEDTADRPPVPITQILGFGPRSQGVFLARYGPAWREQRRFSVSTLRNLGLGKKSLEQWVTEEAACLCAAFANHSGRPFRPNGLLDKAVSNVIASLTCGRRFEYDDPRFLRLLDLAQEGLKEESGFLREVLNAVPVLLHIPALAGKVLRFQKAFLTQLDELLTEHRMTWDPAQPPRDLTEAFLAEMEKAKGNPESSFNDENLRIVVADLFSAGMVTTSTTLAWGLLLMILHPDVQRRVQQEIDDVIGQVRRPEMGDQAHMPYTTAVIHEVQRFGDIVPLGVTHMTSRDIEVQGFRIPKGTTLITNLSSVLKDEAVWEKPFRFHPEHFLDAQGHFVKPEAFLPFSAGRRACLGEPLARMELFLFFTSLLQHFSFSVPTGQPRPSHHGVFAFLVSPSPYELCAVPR
Assay: Inhibition of CYP2D6 in human liver microsomes assessed as enzyme-mediated metabolite formation at 3 uM using dextromethorphan as substrate incubated for 5 mins followed by NADPH addition measured after 30 mins by LC-MS/MS analysis relative to control
Type: ADME
Design: scale not given: the % may be the effect or the level left
Conditions: probe dextromethorphan, read-out: Activity
METRIC: activity at 0.5 h, 3 µM

Query: For `CCCCCCCC(=O)CCc1ccc(O)c(OC)c1` , what is its reported activity at 0.5 h, 3 µM?
Response: 74.6%

----------
Target: Cytochrome P450 1A2 (Homo sapiens, UniProt P05177)
Sequence (P05177 whole entry): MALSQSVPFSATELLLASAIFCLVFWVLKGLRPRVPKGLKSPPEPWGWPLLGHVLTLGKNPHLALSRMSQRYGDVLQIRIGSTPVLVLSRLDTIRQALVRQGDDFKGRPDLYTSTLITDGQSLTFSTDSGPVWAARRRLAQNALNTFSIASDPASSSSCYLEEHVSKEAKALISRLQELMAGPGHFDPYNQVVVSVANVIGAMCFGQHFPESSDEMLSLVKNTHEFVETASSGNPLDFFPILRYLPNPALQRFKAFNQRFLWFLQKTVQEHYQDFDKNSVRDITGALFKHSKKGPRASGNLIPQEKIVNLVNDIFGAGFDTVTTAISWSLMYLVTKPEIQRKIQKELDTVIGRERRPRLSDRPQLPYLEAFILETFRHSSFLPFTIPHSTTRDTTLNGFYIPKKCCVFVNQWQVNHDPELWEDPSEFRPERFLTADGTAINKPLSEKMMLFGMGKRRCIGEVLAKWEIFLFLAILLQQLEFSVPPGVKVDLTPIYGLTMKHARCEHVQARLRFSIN
Test: Inhibition of CYP1A2 in human liver microsomes using phenacetin as substrate preincubated for 20 mins followed by substrate addition measured after 30 mins in presence of NADPH by LC-MS/MS analysis
Type: ADME
METRIC: IC50 (µM)
Numeric only. Scale: µM

Query: What value of IC50 has been reported for the following compound? `CCCCCCCC(=O)CCc1ccc(O)c(OC)c1`
Response: 19.6
